tested on: MDA-MB-435; assay: NCI tumour cell line growth inhibition, 48 h
Active and inactive are the calls of the source. Rule as the data show it: active = GI50 up to about 1.1 µM and inactive = higher.
Classes used: YES = active, NO = inactive

molecule	assigned label
CC(=O)n1c2ccc(Br)cc2c2nc3ccccc3nc21	NO
N/C(CSCCSC/C(N)=N/O)=N\O	NO
Cc1ccc(O)c(C2=CC(c3cccc(Cl)c3)SC(=N)N2)c1 (stereo not given)	NO
N=C(N)SCc1ccc2c(c1)S(=O)(=O)c1ccccc1O2	NO
O=C1c2ccccc2C(=O)N1CCCC(=O)n1cc(F)c(=O)[nH]c1=O	NO
COc1ccc(C(C)c2cc3c(cc2O)OCO3)cc1 (stereo not given)	NO
Cc1cc2[nH]c3c(C#N)c(-c4ccccc4)c(/C=N/c4cccc(C(F)(F)F)c4)c(=O)n3c2cc1C	NO
O=C(CC(O)(C(F)(F)F)C(F)(F)F)c1cc(CC(=O)C(O)(C(F)(F)F)C(F)(F)F)cc(CC(=O)C(O)(C(F)(F)F)C(F)(F)F)c1	YES
CCCCCC(C)(C)CCC(=O)OC1OC(COC2OC(COC3OC(CO)C(O)C(O)C3O)C(O)C(O)C2O)C(O)C(O)C1O (stereo not given)	NO
CN(C)/N=N/c1nc2c(c(=O)n(C)c(=O)n2C)n1C	NO

* * *

system: SK-OV-3; test: NCI tumour cell line growth inhibition, 48 h
The source made the active and inactive calls. Cut-off read from the data, not from the text of the source: active = GI50 up to about 1.1 µM and inactive = higher.
Classes used: active, inactive

compound	assigned label
O=C1NC(=O)C2C1C1C=C3c4ccccc4N(c4ccccc4)C32[C@H]2C(=O)NC(=O)[C@@H]12 (some centres undefined)	inactive
CCCC(=O)n1[nH]c(=O)n(C(C)(C)C)c1=O	inactive
O=CN1CCC23CC(O)CCC2C1Cc1cc(Oc2nnnn2-c2ccccc2)cc(O)c13 (centres undefined)	inactive
Cc1nc2c(=O)n(C)c(=O)n(C)c2o1	inactive
CC(=O)O[C@H]1C(=O)[C@@]2(C)C(C(OC(=O)c3ccccc3)[C@]3(O)CC(OC(=O)C(O)C(NC(=O)c4ccccc4)c4ccc(C)cc4)C(C)=C1C3(C)C)[C@]1(OC(C)=O)CO[C@@H]1C[C@@H]2O (some centres undefined)	active
COC(=O)c1ccc(Cc2cc(Cc3ccc(C(=O)OC)cc3)cc(Cc3ccc(C(=O)OC)cc3)c2)cc1	inactive
CC(c1ccc2c(c1)CCC1C2CC2OC23CC=CC(=O)[C@]13C)C1C[C@]2(C)O[C@]2(C)[C@H](O)O1 (some centres undefined)	inactive
CCCCCCCCCC1(N=[N+]=[N-])C(=O)c2ccccc2N(C)C1=O (centres undefined)	inactive
COc1cc(Br)cc2cc(C3=CSC4=NCCN34)c(=O)oc12	inactive

* * *

tested on: RPMI-8226; assay: NCI tumour cell line growth inhibition, 48 h
Active and inactive are the calls of the source. Cut-off read from the data, not from the text of the source: active = GI50 up to about 1.1 µM and inactive = higher.
Classes used: label 1 (active), label 0 (inactive)

compound	assigned label
COc1ccc(NC(=O)CC(=O)NNC(Sc2ccccc2)c2cc(/N=N/c3ccc(Br)cc3)ccc2O)cc1 (stereo unspecified)	label 0
COc1cccc(/C=N/[N+](C)(C)C)c1O	label 0
CCCC(CC)c1c(O)c(O)c(C(CC)CCC)c(C(CC)CCC)c1C(CC)CCC (stereo unspecified)	label 0
COC(=O)c1cc(OC)c(OC)c(OC)c1-c1cc2c(cc1C=O)OCO2	label 0
c1cc(C2N3CCCN2CC3)ccn1 (stereo unspecified)	label 0
CC(=O)OCC1OC(n2c3c(c(-c4ccc(C)cc4)c(C#N)c2=S)C(=O)CC(C)(C)C3)C(OC(C)=O)C(OC(C)=O)C1OC(C)=O (stereo unspecified)	label 0
CCCCCC1=CC(=O)C1(Cl)Cl	label 0
CC(=O)n1c2ccc(Br)cc2c2nc3ccccc3nc21	label 0
N#Cc1c(N)oc(-c2ccc([N+](=O)[O-])cc2)c1C#N	label 0
COC(=O)/C(C#N)=C(\Nc1ccccc1)N1CCOCC1	label 0
CCCCCC(C)(C)CCC(=O)OC1OC(COC2OC(COC3OC(CO)C(O)C(O)C3O)C(O)C(O)C2O)C(O)C(O)C1O (stereo unspecified)	label 0
CN(C)/N=N/c1nc2c(c(=O)n(C)c(=O)n2C)n1C	label 0
O=C(COc1ccc(Cl)c(Cl)c1)Nc1ccc[n+](Cc2ccc(S(=O)(=O)F)c(Cl)c2)c1	label 1
Cc1ccc(NC(=O)CCC(=O)C(C#N)c2ccc(Cl)cc2)cc1C (stereo unspecified)	label 0
COc1cc(N(C)C)ccc1C=c1c2ccccc2n2c1cc(-c1ccccc1)[n+]2C	label 1
O=[N+]([O-])c1ccc(Cl)c(C2SCc3nc4ccccc4n32)c1 (stereo unspecified)	label 0
CCCCc1ccc(Nc2nc(Cl)c3ncn(C4CC(Oc5ccc(C)cc5)C(COc5ccc(C)cc5)O4)c3n2)cc1 (stereo unspecified)	label 0
Cc1ccc2nc(CN3CCCC(O)C3)cc(=O)n2c1 (stereo unspecified)	label 0
O=C(CC1(O)C(=O)Nc2ccccc21)c1ccc(F)cc1 (stereo unspecified)	label 0
CN(C)CN1C(=O)S/C(=C2\C(=O)N(CN(C)C)c3ccccc32)C1=O	label 0
O=C(CCn1[nH]c(=O)c(Cl)c(Cl)c1=O)NNC(=O)C[n+]1ccccc1	label 0

* * *

test system: HOP-18; test: NCI tumour cell line growth inhibition, 48 h
The source made the active and inactive calls. Cut-off read from the data, not from the text of the source: active = GI50 up to about 1.1 µM and inactive = higher.
Measured GI50 accompanies every entry in the list below.

compound	GI50
O=c1c(O)c(-c2ccccc2)n(O)c2ccc(Cl)cc12	47.8 µM (inactive)
CCOC(=N)CC(=O)Nc1ccccc1CC	> 100 µM (inactive)
CCOC(=O)Cc1nc2ccccc2s1	24.8 µM (inactive)
Cc1c(-c2nnc(-c3ccccc3)o2)c(=O)n(-c2ccccc2)n1C	> 100 µM (inactive)
Nc1ncn(C2C=C(CO)C(O)C2O)c(=O)n1 (configuration not stated)	> 100 µM (inactive)
COC(=O)c1c(-c2cc(OC)c(OC)c(OC)c2)oc2ccccc2c1=O	> 100 µM (inactive)
CNC(=O)C1CCc2nnc(-c3ccccc3)n21 (configuration not stated)	> 100 µM (inactive)

* * *

tested on: Malme-3M; experiment: NCI tumour cell line growth inhibition, 48 h
Calls of active or inactive are those of the source. No stated cut-off is given here; in the data, active = GI50 up to about 1.1 µM and inactive = higher.
metric name: GI50

compound	recorded value
Cc1sc(Nc2ccccc2[N+](=O)[O-])c(C#N)c1C	0.0556 µM (active)
O=C1C2ON3c4ccccc4C(=O)C3(c3ccccc3)C2C(=O)N1c1ccccc1 (stereo not drawn)	> 100 µM (inactive)
Cc1cc(C)c(N[S+]([O-])c2ccc(Cl)cc2)c(C)c1 (stereo not drawn)	> 100 µM (inactive)
CC[n+]1c(/C=C/c2cc(C(=O)OC)n3c2sc2ccccc23)sc2ccccc21	16.7 µM (inactive)
Cc1ccc(S(=O)(=O)N/N=C2/CCC(C(C)(C)C)CC2Br)cc1 (stereo not drawn)	16.3 µM (inactive)
CCOP(=O)(C=C=C1CCC2[C@@H]3CCc4cc(OC)ccc4C3CC[C@]12C)OCC (stereo partly drawn)	15.6 µM (inactive)
CC(C(=O)N1c2ccccc2Sc2ccccc21)N1c2ccccc2Sc2ccccc21 (stereo not drawn)	> 100 µM (inactive)
CCc1c2c(cc3c1CC1(C3)Cc3cc4c(c(C(=O)OC)c3C1)CCCC4)CCCC2 (stereo not drawn)	> 100 µM (inactive)
C=CCn1c(=O)ccn(COCCO)c1=O	> 100 µM (inactive)
COc1ccc(N2C(=O)C3c4[nH]c5ccccc5c4C4c5ccccc5CC4C3C2=O)cc1 (stereo not drawn)	> 100 µM (inactive)
CC1CC(NC2CCCCC2)=Nc2ccccc2N1Cc1ccccc1 (stereo not drawn)	1.49 µM (inactive)
CC(=O)C1=C(C)N(c2ccc(C)cc2)C2(O)C=CC(=O)C3C(=O)N(c4ccccc4)C(=O)C132 (stereo not drawn)	19.6 µM (inactive)
CCCCCCCCCCCCCCCCCC(=O)OCC(COC(=O)CCCN)OC(=O)CCCN (stereo not drawn)	23.2 µM (inactive)
CCOC(=O)Cc1nc2ccccc2s1	16.3 µM (inactive)
CC(Oc1ccccc1Cl)C(=O)NN1C(=O)CSC1c1ccc(Cl)cc1 (stereo not drawn)	27 µM (inactive)
C[C@@H]1C(=O)CC2C(C)(C)CCC[C@]2(C)[C@@]12CC[C@]1(C=COC1)O2 (stereo partly drawn)	27.8 µM (inactive)
O=[N+]([O-])c1ccc(Cl)c(C2SCc3nc4ccccc4n32)c1 (stereo not drawn)	44.1 µM (inactive)
O=C(Nc1ccccc1)n1[nH]c(=O)n(-c2ccccc2)c1=O	> 100 µM (inactive)
CCOC(=O)N1C2C=C(C)C(ON2C(=O)c2ccccc2)C2C(C)C(=O)N21 (stereo not drawn)	> 100 µM (inactive)
CCCC(=O)n1[nH]c(=O)n(C(C)(C)C)c1=O	44.1 µM (inactive)
CCCCc1ccc(Nc2nc(Cl)c3ccn(C4CC(Oc5ccc(C)cc5)C(COc5ccc(C)cc5)O4)c3n2)cc1 (stereo not drawn)	26.7 µM (inactive)
O=c1[nH]c2c(Nc3c4ccccc4nc4ccccc34)c([N+](=O)[O-])c(Nc3c4ccccc4nc4ccccc34)c([N+](=O)[O-])c2[nH]1	1.57 µM (inactive)
COc1cc(N(C)C)ccc1C=c1c2ccccc2n2c1cc(-c1ccccc1)[n+]2C	1.02 µM (active)
CN(Cc1cnc2nc(N)nc(N)c2n1)c1ccc(C(=O)N[C@@H](CCC(=O)O)C(=O)O)cc1 [METHOTREXATE]	2.36 µM (inactive)
NC(=O)c1ncn2c1NC(=O)CC2	> 100 µM (inactive)
Cc1cc(N)c(C)c2c1[nH]c1ccc(O)cc12	> 100 µM (inactive)
OC1(c2cccs2)c2cccc(Cl)c2C(O)(c2cccs2)c2c(Cl)cccc21 (stereo not drawn)	80.2 µM (inactive)
CN(C)/N=N/c1nc2c(c(=O)n(C)c(=O)n2C)n1C	> 100 µM (inactive)
N=C(N)N/N=C\c1ccc(C2CCNCC2)cc1	> 100 µM (inactive)
CCN(CC)CCCNC(=O)c1cc(-c2nccn2C)nc2ccccc12	> 100 µM (inactive)
COc1ccc2c(c1)c(CC(=O)O)c(C)n2C(=O)c1ccc(Cl)cc1	68.7 µM (inactive)
CC(C)(CO)CNc1nc(N)nc(Cl)c1/C=N/O	57.4 µM (inactive)
O=NN(CCCl)C(=O)N[C@H]1CC[C@H](C(=O)O)CC1	94.8 µM (inactive)
